- Test system: Smad2/3 phosphorylation caused by TGF-β1 stimulation
- assay-protocol: Smad2/3 phosphorylation inhibitory activity test
- Format: cell-based
- test-context: Homo sapiens; A549 cells; compound 2 hours before TGF-β1 1 ng/ml, 1 hour; anti-Smad2/3 immunoprecipitation, Western blotting
What pIC50 was measured for each of the following?
By convention, pIC50 is the negative base-10 log of a molar concentration.

What reported pIC50 corresponds to CCNC(=O)NCc1nc(-c2nc(C)cs2)c(-c2ccc3ncsc3c2)[nH]1 [Compound 175] on Smad2/3 phosphorylation caused by TGF-β1 stimulation?
6.90

Item: COCC(=O)NCc1nc(-c2nc(C)cs2)c(-c2ccc3ncsc3c2)[nH]1 [Compound 124]
7.17

Item: COCCCCc1nc(-c2nc(C)cs2)c(-c2ccc3ncsc3c2)[nH]1 [Compound 87]
7.42

Item: Cc1csc(-c2nc(C3CCC(=O)CC3)[nH]c2-c2ccc3ncsc3c2)n1 [Compound 80]
7.05

Item: CCCC(=O)NCc1nc(-c2nc(C)cs2)c(-c2ccc3ncsc3c2)[nH]1 [Compound 105]
7.49

Item: CCCNC(=O)CCCCc1nc(-c2nc(C)cs2)c(-c2ccc3ncsc3c2)[nH]1 [Compound 171]
7.05

Item: Cc1csc(-c2nc(CNC(=O)N(C)C)[nH]c2-c2ccc3ncsc3c2)n1 [Compound 176]
7.11

Item: Cc1csc(-c2nc(C3CCOCC3)[nH]c2-c2ccc3ncsc3c2)n1 [Compound 83]
7.00

Ref: patent US7678810B2
